Origin of values: PubChem BioAssay AID2060504

# System: 636577-100-R-J1-PDC complex spheroid viability
# protocol-description: Anticancer human tumor 636577-100-R-J1-PDC patient-derived endometrial adenocarcinoma cell line growth inhibition [GQUAD]
# condition-set: curve of first compound; second compound 0.316 µM
assay-metric: IC50 (nM)
Field: numeric (nM). Do not append units.

Past entries and their recorded results:
molecule	IC50, nM
O=C(c1cc(Cc2n[nH]c(=O)c3ccccc23)ccc1F)N1CCN(C(=O)C2CC2)CC1 + CN(C)c1ccc(Nc2c3ccc(NC(=O)CCN4CCCC4)cc3nc3cc(NC(=O)CCN4CCCC4)ccc23)cc1	3730
CC1COCCN1c1cc(-c2ccnn2C)c2ccnc(-c3ccn[nH]3)c2n1 (centres undefined) + Cc1[nH]c2ccc(F)cc2c1-c1nc2c3cccnc3c3ncccc3c2[nH]1	105
CC(C)(O)C1CCC(Nc2ccc3ncc(-c4cccc(C(F)(F)F)c4)n3n2)CC1 (centres undefined) + CN(C)c1ccc(Nc2c3ccc(NC(=O)CCN4CCCC4)cc3nc3cc(NC(=O)CCN4CCCC4)ccc23)cc1	1580

Ask: // query IC50 value for entry C#Cc1c(F)ccc2cc(O)cc(-c3ncc4c(N5CC6CCC(C5)N6)nc(OCC56CCCN5CC(F)C6)nc4c3F)c12 (centres undefined) + Cc1[nH]c2ccc(F)cc2c1-c1nc2c3cccnc3c3ncccc3c2[nH]1
Result: 4540

* * *

# System: 636577-100-R-J1-PDC complex spheroid viability
# protocol-description: Anticancer human tumor 636577-100-R-J1-PDC cell line growth inhibition [GQUAD];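 also: viability read after seven days of drug exposure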;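 as to viability, T/C: luminescence signal used as a proxy for viable cells; 100% = DMSO vehicle control wells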
# condition-set: second compound 1 µM; first compound 0.1 µM; stronger effect = lower value
# Lookup of reported viability, T/C keyed by entry
Field: numeric (%). Do not append units.

Past entries and their recorded results:
compound	viability, T/C / %
COc1ccc([C@@H](O)c2cc(-c3ncnc4cc(N5CCOCC5)ccc34)c(F)cc2Cl)nn1 + Cc1cnc(CNC(=O)c2c(=O)c3ccc(N4CCCN(C)CC4)nc3n3c2sc2ccccc23)cn1	18.3
Cc1cccc(N(C)C(=O)C2C(O)CCN2c2nc(C)cc(C(F)(F)F)c2C#N)c1 (stereo not given) + Cc1[nH]c2ccc(F)cc2c1-c1nc2c3cccnc3c3ncccc3c2[nH]1	65.3
O=C(NO)c1cnc(N2CCN(S(=O)(=O)c3ccc4ccccc4c3)CC2)nc1 + CN(C)c1ccc(Nc2c3ccc(NC(=O)CCN4CCCC4)cc3nc3cc(NC(=O)CCN4CCCC4)ccc23)cc1	15.7
COc1cc(C2c3cc4c(cc3C(OC3OC5COC(C)OC5C(O)C3O)C3COC(=O)C23)OCO4)cc(OC)c1O (stereo not given) + Cc1[nH]c2ccc(F)cc2c1-c1nc2c3cccnc3c3ncccc3c2[nH]1	37.2

Ask: Look up viability, T/C with 636577-100-R-J1-PDC complex spheroid viability for this compound: CCCS(=O)(=O)Nc1ccc(F)c(C(=O)c2c[nH]c3ncc(-c4ccc(Cl)cc4)cc23)c1F + CN(C)c1ccc(Nc2c3ccc(NC(=O)CCN4CCCC4)cc3nc3cc(NC(=O)CCN4CCCC4)ccc23)cc1
Result: 69.8
